- Experiment Summary: soluble on expression in E. coli; label from the status in PepcDB or PDB records
Recorded Endpoint: soluble on expression in E. coli

Some solved cases for reference:
>>> reported_result("IFNVPFGLNINLLPQYHMYTTQEAKDKIYYYSGNKVGFDIGASAQIGYMWQVTDNFGISLLGELGYSFDSFNANFDTAKVENPNDITGQIDAPEGTQKLGSASFYTHNLKIGILPKFNIKAFSIGIGLGIIVPMAITQNWKDEAAKTLFKDASTKFMSSVGFYGKLTFDYSIFFTEKIAMNIGLYTGVDAIGSINTTINNTSLNQGAHSEAPLLSYDIGLQLGFRFGPKAFN")
"not soluble"
>>> reported_result("MSLYTVLVADDKEVFRRKVKRMPYFQDHKEKFAIRYEAQNGLEALEILRSHDVDMVLTDIRMPFIDGIELLKHVNAENLCKCVILLSEFAEFNYAKAGILNGAFDYVLKPVDDEKIQETFDRAYNYLTTINAAVNAQTQRIETLARLMLAGDRMNALAYAKHIGAGLQAHGAITGERIVQANDTLAQLNKYILQKRPFLHYYLPFDELCCLDAKKTTPGKISDAFNACVSTVMDAIEPFCVQSTNELVGRTCQLVLEKLDSKVSLHGIADNLYVNPKYLGALFKKETGRSFVDYVTFARMERAKMLLRNPTLKVYEVAAQLGYDDVDYFSKVFKKLTAESPSIYREMRKEGHHHHHH")
"soluble"
>>> reported_result("MAEEIQMYDDAASVAFIRNFIPQELKEKMTDDDIVYIVDLIYDFYESRGFMDMAEDSEETVEVDEDELVEYVVKNAARDEVGHFSADEIRFVVQGELEYCESINLFEED")
"not soluble"
>>> reported_result("MRTNVPDQQSTVQKLLDENSRLIDIIQEYLNQSRADEAIKHQQLLHRNLLHLSNLADPFLLSQLKDDGTAAAALPDPNQQQPQPGASGPPAPHLQQQQPQHSPQQGHPHPQQGLPAAHHRQQMMPPQAAPSPGGPMQPPHGFAPPPMGGGVPPEMMNHQAYQAQMRQQQQQPNGQAPPPVYPPFGQPAPQMSGQRMPYPYPPQGMPGYPGGPPPPPHGYEGYPPPGAQPGYMR")
"soluble"

Bench note: what soluble on expression in E. coli did `MQRTLNVGVILCESFISNAQNPVNSYIKIYENVRMFEFAIKLLQESRINFQKILLYVLEEQIPLVEKVVAKYENCWVFRSKHNEVEDIYEAKGFIEDKYKIGLKSSKNQASSYYDNCCFVVLEACRPLTSKKVVKNVYEKAMIDGAAVAVLPFERQLVCGDNTKAVRQLKDKGNMNYWRQSSTWELQFPQAYTLNKLNQYHKNLFMKARNMLDLMNISAKNPLSIVDGSAYSFRVVTSLDFEILLGILRNG` show?
not soluble
